- method-summary: 50% lethal dose (LD50) by intravenous injection to mice
- stated-conditions: mouse, in vivo
observed-property: LD50

I'd like to know its LD50. The molecule in question is COc1cc(CC2NCCc3c(O)cc(O)cc32)cc(OC)c1OC.Cl (stereo not shown)
~51 mg/kg
